Each entry below lists one item and its recorded IC50 value.
Target: Hypoxia inducible factors; HIF-1-alpha, HIF-2-alpha (Homo sapiens, UniProt Q16665+Q99814)
Test: Inhibition of HIF1 in human HT1080 cells transfected with 5xHRE/pGL3/VEGF/E1b reporter plasmid pre-incubated for 1 hr followed by incubation under hypoxia conditions for 24 hrs by HRE-driven luciferase reporter gene assay
Type: cell-based
Settings: ht-1080
measured attribute: IC50 (µM)

INSERT INTO results (structure_string, censoring_operator, obs_value) VALUES
  ('CCn1cc(NC(=O)c2ccc(Cn3nc(C)cc3C)o2)c(C(=O)N(C)C)n1', '>', 100),
  ('CCn1cc(NC(=O)c2ccc(Cn3nc(C)c(Cl)c3C)o2)c(C(N)=O)n1', '=', 8.7),
  ('CCn1cc(NC(=O)c2ccc(Cn3nc(C)cc3C)o2)c(C(=O)NC)n1', '=', 19.4),
  ('CCn1cc(NC(=O)c2ccc(Cn3nc(C)c(Br)c3C)o2)c(C(N)=O)n1', '=', 8.1),
  ('CCn1cc(NC(=O)c2cccc(Cn3nc(C)cc3C)c2)c(C(N)=O)n1', '=', 72),
  ('CCn1ncc(NC(=O)c2ccc(Cn3nc(C)cc3C)o2)c1C(N)=O', '>', 100),
  ('CCn1cc(NC(=O)c2ccc(Cn3nc(C)cc3C)s2)c(C(N)=O)n1', '>', 100),
  ('Cc1cc(C)n(Cc2ccc(C(=O)Nc3c[nH]nc3C(N)=O)o2)n1', '=', 71.6),
  ('CCn1cc(NC(=O)c2ccc(Cn3cccn3)o2)c(C(N)=O)n1', '=', 81.8),
  ('CCn1cc(NC(=O)c2ccc(Cn3nc(C)cc3C)o2)c(C(N)=O)n1', '=', 19.1),
  ('CCn1cc(NC(=O)c2ccc(Cc3c(C)noc3C)o2)c(C(N)=O)n1', '>', 100),
  ('Cc1cc(C)n(Cc2ccc(C(=O)Nc3cnn4c3C(=O)NCC4)o2)n1', '>', 100);

These entries and their values trace back to ChEMBL document CHEMBL3400140.
